# target.under.test: HLA-A*29:02
# experimental.details: IEDB peptide-MHC binding, purified MHC/competitive/fluorescence; filed as Kd, often an IC50 or EC50 that approximates it; bounds were set here for any values at or beyond the usual limits of such assays
# setup.conditions: source organism: Burkholderia pseudomallei 668
pKd: −log10 of the molar value.
quantity.kind: pKd

For ILFDRLPIA , what is its reported pKd?
≤ 4.70

* * *

# target.under.test: HLA-A*30:01
# experimental.details: IEDB peptide-MHC binding, purified MHC/direct/fluorescence; filed as Kd, often an IC50 or EC50 that approximates it; bounds were set here for any values at or beyond the usual limits of such assays
# setup.conditions: source organism: Vibrio parahaemolyticus AQ3810
quantity.kind: Kd

For LVAPHMAMM , what is its reported Kd?
≥ 20 µM

* * *

# target.under.test: HLA-B*15:01
# experimental.details: IEDB peptide-MHC binding, purified MHC/direct/fluorescence; filed as Kd, often an IC50 or EC50 that approximates it; bounds were set here for any values at or beyond the usual limits of such assays
# setup.conditions: source organism: Inovirus M13
quantity.kind: pKd
API: returns pKd as number; meaning -log10 of concentration in mol/L.

Requested read-out pKd, target or system HLA-B*15:01, entry TFMYVFSTF
6.16

* * *

# target.under.test: HLA-A*02:19
# experimental.details: IEDB peptide-MHC binding, purified MHC/direct/fluorescence; filed as Kd, often an IC50 or EC50 that approximates it; bounds were set here for any values at or beyond the usual limits of such assays
# setup.conditions: source organism: Campylobacter jejuni
quantity.kind: Kd

For YWDQVTFFY , what is its reported Kd?
≥ 20 µM

* * *

# target.under.test: HLA-A*01:01
# experimental.details: IEDB peptide-MHC binding, purified MHC/competitive/radioactivity; filed as Kd, often an IC50 or EC50 that approximates it; bounds were set here for any values at or beyond the usual limits of such assays
# setup.conditions: source organism: Mammarenavirus machupoense
quantity.kind: Kd

Requested read-out Kd, target or system HLA-A*01:01, entry QCGDPSSFDY
1400 nM

* * *

# target.under.test: HLA-A*02:01
# experimental.details: IEDB peptide-MHC binding, purified MHC/competitive/radioactivity; filed as Kd, often an IC50 or EC50 that approximates it; bounds were set here for any values at or beyond the usual limits of such assays
# setup.conditions: source organism: Homo sapiens
pKd: −log10 of the molar value.
quantity.kind: pKd

For DLKDLEAHI , what is its reported pKd?
≤ 4.08

* * *

# target.under.test: HLA-B*58:01
# experimental.details: IEDB peptide-MHC binding, purified MHC/direct/fluorescence; filed as Kd, often an IC50 or EC50 that approximates it; bounds were set here for any values at or beyond the usual limits of such assays
# setup.conditions: source organism: Mycobacterium tuberculosis
pKd: −log10 of the molar value.
As shown below, each of these sequences has a reported pKd value.

Known pKd results, listed for orientation:
{"seq.string": "TLLESFLFY", "pKd": "≤ 4.70"}
{"seq.string": "GPRGRHVVL", "pKd": "≤ 4.70"}

Would you kindly look at the next entry?
For ALYLLDGLR , what is its reported pKd?
≤ 4.70

* * *

As shown below, each of these sequences has a reported log10(Kd) value.
# target.under.test: HLA-B*53:01
# experimental.details: IEDB peptide-MHC binding, purified MHC/competitive/radioactivity; filed as Kd, often an IC50 or EC50 that approximates it; bounds were set here for any values at or beyond the usual limits of such assays
# setup.conditions: source organism: Vaccinia virus WR
In plain terms, each number is the log10 of measured Kd in µM.

Known log10(Kd) results, listed for orientation:
{"seq.string": "NPDNTIAVI", "log10(Kd)": -2.85}
{"seq.string": "RPRFDDAYNI", "log10(Kd)": -1.49}
{"seq.string": "LPESDLDKV", "log10(Kd)": 0.86}
{"seq.string": "IPVDLVKSSF", "log10(Kd)": -2.06}

Requested read-out log10(Kd), target or system HLA-B*53:01, entry IPFDDIVRTM
0.01

Requested read-out log10(Kd), target or system HLA-B*53:01, entry VPEFAKQYVL
-1.07

Requested read-out log10(Kd), target or system HLA-B*53:01, entry KPKFCLIDGM
1.08

Requested read-out log10(Kd), target or system HLA-B*53:01, entry NPTSETMYL
-2.38

Requested read-out log10(Kd), target or system HLA-B*53:01, entry HPLSINVSGV
1.27

Requested read-out log10(Kd), target or system HLA-B*53:01, entry YPFYVSPTEM
-0.35

Requested read-out log10(Kd), target or system HLA-B*53:01, entry NTYLFNILY
0.76

Values compiled from the Immune Epitope Database (IEDB).
